experiment: soluble on expression in E. coli; label from the status in PepcDB or PDB records

| querySequence | soluble on expression in E. coli |
| --- | --- |
| MAGDPMKKTLTVTVSSVLAFLALNNAAHAQQHGTQVKTPVQHNYVSNVQAQTQSPTTYTVVAGDSLYKIALEHHLTLNQLYSYNPGVTPLIFPGDVISLVPQNKVKQTKAVKTPVRKASQAKKVVKQPVQQASKKVVVKQAPKQAVAKTVNVAYKPAQVQKSVPTVPVAHNYNKSVANRGNLYAYGNCTYYAFDRRAQLGRSIGSLWGNANNWNYAAKVAGFKVDKTPEVGAIFQTAAGPYGHVGVVESVNPNGTITVSEMNYAGFNVKSSRTILNPGKYNYIHLEHHHHHH | not soluble |
| MIATTSQQSFNLLRTLAVQKASDFADEFYIYMLKDQEASLFLSSQQVHDRLHGSMSKWIADILTNTGDSLADLINHQKKIGQIHARIGIPVDLVERGARRLKWHLYEHIAQVADDKALCFDAMRFASISMDIAIEIMSKTYSQSHDLEHHHHHH | not soluble |
